target: TBK1 (Homo sapiens, UniProt Q9UHD2); construct: His-tag; made in house; host or cells: Sf9 insect cells; assay: In-vitro TBK1 kinase assay ([γ33]ATP filter-plate); type: biochemical; conditions: text bins; read-out: IC50 for inhibition of the kinase activity of TBK1
Sequence (Q9UHD2 whole entry): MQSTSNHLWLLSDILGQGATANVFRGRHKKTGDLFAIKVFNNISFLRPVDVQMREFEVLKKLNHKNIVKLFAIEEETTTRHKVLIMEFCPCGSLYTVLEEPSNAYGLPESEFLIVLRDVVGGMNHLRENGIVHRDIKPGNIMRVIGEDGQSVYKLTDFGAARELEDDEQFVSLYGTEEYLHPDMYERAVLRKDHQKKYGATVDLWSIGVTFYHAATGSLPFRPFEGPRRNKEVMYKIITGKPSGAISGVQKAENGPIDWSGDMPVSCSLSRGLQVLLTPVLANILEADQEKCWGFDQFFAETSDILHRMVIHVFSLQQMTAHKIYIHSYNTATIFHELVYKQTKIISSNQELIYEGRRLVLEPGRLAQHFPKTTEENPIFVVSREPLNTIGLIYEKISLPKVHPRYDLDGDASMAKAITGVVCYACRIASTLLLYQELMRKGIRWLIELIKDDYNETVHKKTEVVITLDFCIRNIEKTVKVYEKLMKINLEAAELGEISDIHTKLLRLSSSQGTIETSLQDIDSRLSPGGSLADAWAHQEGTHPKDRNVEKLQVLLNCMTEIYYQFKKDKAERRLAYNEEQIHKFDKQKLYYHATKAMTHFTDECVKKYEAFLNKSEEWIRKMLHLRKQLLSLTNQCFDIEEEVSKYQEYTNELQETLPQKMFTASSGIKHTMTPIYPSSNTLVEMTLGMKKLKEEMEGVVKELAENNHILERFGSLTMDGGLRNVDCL
Measured IC50 of individual entries

Recorded results for 5 compounds are shown here.
In [3]: df
Out[3]:
                                   compound   assay_value
0  COc1ccc(-c2ccnc(Nc3cccc(NC(=O)N4CC[C@@H](O)C4)c3)n2)cc1C#N  10 to 100 nM
1  COc1cc(Nc2nccc(-c3ccc(OC4CCOCC4)c(C#N)c3)n2)ccc1OCCCN1CCOCC1       < 10 nM
2  COc1cc(Nc2nccc(-c3ccc(OC4CCOCC4)c(C#N)c3)n2)ccc1C(=O)N1CC2CC1CN2 (centres unmarked)       < 10 nM
3  N#Cc1cc(-c2ccnc(Nc3ccc(N4CCOCC4)cc3)n2)ccc1OC1CCOC1 (centres unmarked)       < 10 nM
4  COc1cc(Nc2nccc(-c3ccc(OC4CCOCC4)c(C#N)c3)n2)ccc1C(=O)N1CC(O)C1       < 10 nM

Report IC50 for CCOC(=O)C(C)NCc1ccc(Nc2nccc(-c3ccc(OC4CCOCC4)c(C#N)c3)n2)cc1 (centres unmarked) please.
< 10 nM

Report IC50 for N#Cc1cc(-c2ccnc(Nc3ccc(N4CCOCC4)cc3)n2)ccc1OC1CCN(C(=O)C2(N)CC2)C1 (centres unmarked) please.
100 to 500 nM

Report IC50 for N#Cc1cc(-c2ccnc(Nc3ccc(N)cc3)n2)ccc1OC1CCOCC1 please.
< 10 nM

====

Target: IKKε (Homo sapiens, UniProt Q14164)
Construct: His-tag; made in house; host or cells: Sf9 insect cells
Sequence (Q14164 1-716): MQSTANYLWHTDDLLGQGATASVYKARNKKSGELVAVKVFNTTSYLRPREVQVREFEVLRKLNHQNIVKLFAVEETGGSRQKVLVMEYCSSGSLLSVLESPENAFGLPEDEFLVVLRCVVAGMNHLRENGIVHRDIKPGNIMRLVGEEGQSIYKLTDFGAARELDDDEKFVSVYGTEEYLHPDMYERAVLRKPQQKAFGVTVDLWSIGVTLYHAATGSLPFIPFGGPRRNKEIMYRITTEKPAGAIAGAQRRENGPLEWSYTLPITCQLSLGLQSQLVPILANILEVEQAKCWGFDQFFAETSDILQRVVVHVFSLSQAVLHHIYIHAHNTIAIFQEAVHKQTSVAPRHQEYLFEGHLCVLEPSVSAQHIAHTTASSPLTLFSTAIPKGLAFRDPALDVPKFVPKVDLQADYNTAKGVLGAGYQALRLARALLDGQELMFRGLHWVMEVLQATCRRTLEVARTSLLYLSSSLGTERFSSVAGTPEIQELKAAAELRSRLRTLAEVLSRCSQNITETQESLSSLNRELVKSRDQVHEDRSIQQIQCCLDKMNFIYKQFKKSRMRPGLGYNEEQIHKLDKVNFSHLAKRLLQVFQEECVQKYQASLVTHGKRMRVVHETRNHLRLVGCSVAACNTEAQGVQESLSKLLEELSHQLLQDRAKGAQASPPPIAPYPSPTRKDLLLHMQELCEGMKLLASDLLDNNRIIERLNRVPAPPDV
Assay: In-vitro IKKε kinase assay ([γ33]ATP filter-plate)
Assay type: biochemical
Settings: text bins; read-out: IC50 for inhibition of the kinase activity of IKKε
Quantity Measured: IC50

Recorded results for 3 molecules are shown here.
In [3]: df
Out[3]:
                                   molecule                       assayed_target  assay_value
0  N#Cc1cc(-c2ccnc(Nc3ccc(N4CCOCC4)c(C(F)(F)F)c3)n2)ccc1OC1CCOCC1 [Example 120]  IKKε (Homo sapiens, UniProt Q14164)   5 to 50 nM
1  CC(=O)NCCCOc1ccc(-c2ccnc(Nc3ccc(N4CCOCC4)cc3)n2)cc1C#N [Example 149]  IKKε (Homo sapiens, UniProt Q14164)   5 to 50 nM
2  Cn1cc(-c2ccc(Nc3nccc(-c4ccc(OC5CCOCC5)c(C#N)c4)n3)cc2)cn1 [compound 584]  IKKε (Homo sapiens, UniProt Q14164)       < 5 nM

Lab note: need IC50 for COc1cc(Nc2nccc(-c3ccc(OC4CCOCC4)c(C#N)c3)n2)ccc1C(=O)NCCN1CCCC1 [compound 504] on IKKε (Homo sapiens, UniProt Q14164), anyone have it?
< 5 nM

Lab note: need IC50 for COCCNC(=O)c1ccc(Nc2nccc(-c3ccc(NC(=O)C4CC4)c(C#N)c3)n2)cc1 [compound 537] on IKKε (Homo sapiens, UniProt Q14164), anyone have it?
5 to 50 nM

Lab note: need IC50 for CS(=O)(=O)N1CCC(Oc2ccc(-c3ccnc(Nc4ccc(N5CCOCC5)cc4)n3)cc2C#N)C1 (stereo not shown) [Example 257] on IKKε (Homo sapiens, UniProt Q14164), anyone have it?
5 to 50 nM

Lab note: need IC50 for Cc1ccc(Nc2nccc(-c3ccc(OC4CCOCC4)c(C#N)c3)n2)cc1OCCN1CCNCC1 [compound 533] on IKKε (Homo sapiens, UniProt Q14164), anyone have it?
< 5 nM

Lab note: need IC50 for N#Cc1cc(-c2ccnc(Nc3ccc(N4CCOCC4)cc3)n2)ccc1NC(=O)C1CCOCC1 [Example 97] on IKKε (Homo sapiens, UniProt Q14164), anyone have it?
50 to 500 nM

Lab note: need IC50 for CC(=O)NS(=O)(=O)c1ccc(Nc2nccc(-c3ccc(OC4CCOCC4)c(C#N)c3)n2)cc1 [compound 630] on IKKε (Homo sapiens, UniProt Q14164), anyone have it?
< 5 nM

Lab note: need IC50 for CN1CCC(NCc2cccc(Nc3nccc(-c4ccc(OC5CCOCC5)c(C#N)c4)n3)c2)CC1 [Example 271] on IKKε (Homo sapiens, UniProt Q14164), anyone have it?
< 5 nM

Lab note: need IC50 for N#Cc1cc(-c2ccnc(Nc3ccc(CN)cc3)n2)ccc1OC1CCOCC1 [compound 486] on IKKε (Homo sapiens, UniProt Q14164), anyone have it?
< 5 nM

Lab note: need IC50 for CC(C)(O)C(=O)Nc1cccc(Nc2nccc(-c3ccc(OC4CCOCC4)c(C#N)c3)n2)c1 [compound 563] on IKKε (Homo sapiens, UniProt Q14164), anyone have it?
< 5 nM

Lab note: need IC50 for COc1cc(NC(=O)NCCN(C)C)cc(Nc2nccc(-c3ccc(OC)c(C#N)c3)n2)c1 [compound 360] on IKKε (Homo sapiens, UniProt Q14164), anyone have it?
50 to 500 nM

Lab note: need IC50 for N#Cc1cc(-c2ccnc(Nc3ccc4scnc4c3)n2)ccc1OC1CCOCC1 [Example 15] on IKKε (Homo sapiens, UniProt Q14164), anyone have it?
< 5 nM

Lab note: need IC50 for CC(C)(C)c1ccc(Nc2nccc(-c3cccc(C#N)c3)n2)cc1 [Example 282] on IKKε (Homo sapiens, UniProt Q14164), anyone have it?
50 to 500 nM

Lab note: need IC50 for N#Cc1cc(-c2ccnc(Nc3ccc(Cn4cncn4)cc3)n2)ccc1OC1CCOCC1 [compound 624] on IKKε (Homo sapiens, UniProt Q14164), anyone have it?
< 5 nM

====

molecular target: TBK1 (Homo sapiens, UniProt Q9UHD2); construct: His-tag; made in house; host or cells: Sf9 insect cells; assay: In-vitro TBK1 kinase assay ([γ33]ATP filter-plate); format: biochemical; conditions: text bins; read-out: IC50 for inhibition of the kinase activity of TBK1
Quantity Measured: IC50

Recorded results for 5 compounds are shown here.
                                   compound                       assayed_target  quantity_measured     assay_value
0  N#Cc1cc(-c2ccnc(Nc3ccc(N4CCOCC4)cc3)n2)ccc1OC1CCN(S(N)(=O)=O)C1 (stereo not shown)  TBK1 (Homo sapiens, UniProt Q9UHD2)               IC50       < 0.01 µM
1  N#Cc1cc(-c2ccnc(Nc3cccc(CNCCN4CCOCC4)c3)n2)ccc1OC1CCOCC1  TBK1 (Homo sapiens, UniProt Q9UHD2)               IC50  0.01 to 0.1 µM
2  COCCOC1CN(C(=O)c2ccc(Nc3nccc(-c4ccc(OC5CCOCC5)c(C#N)c4)n3)cc2OC)C1  TBK1 (Homo sapiens, UniProt Q9UHD2)               IC50       < 0.01 µM
3  COc1cc(Nc2nccc(-c3ccc(OC4CCOCC4)c(C#N)c3)n2)ccc1C(=O)N1CCC(N2CCCC2)C1 (stereo not shown)  TBK1 (Homo sapiens, UniProt Q9UHD2)               IC50       < 0.01 µM
4  COc1ccc(-c2ccnc(Nc3ccc(CN4CCN(C)CC4)cc3)n2)cc1C#N  TBK1 (Homo sapiens, UniProt Q9UHD2)               IC50  0.01 to 0.1 µM

Report IC50 for COc1cc(Nc2nccc(-c3ccc(NC(=O)C(C)C)c(C#N)c3)n2)ccc1OCCCN1CCOCC1 please.
< 0.01 µM

Report IC50 for N#Cc1cc(-c2ccnc(Nc3cccc(CC(=O)NCCCN4CCOCC4)c3)n2)ccc1OC1CCOCC1 please.
< 0.01 µM
